ASSAY SUMMARY: Phase 1 study: single- and multiple-dose plasma pharmacokinetics
Assay type: in vivo, human (Japanese patients)
CONDITION CONTEXT: human; plasma, multiple dose 0.75 mg QD oral, N = 3; AUCtau = AUC24; geometric mean (geometric %CV)
READOUT LABEL: AUC (ng·h/mL)

> print(dat)
                                   compound  test.value
1  Cn1ncnc1[C@H]1c2n[nH]c(=O)c3cc(F)cc(c23)N[C@@H]1c1ccc(F)cc1 [Talazoparib, talazoparib]         127

----------
ASSAY SUMMARY: Phase 1 study: single- and multiple-dose plasma pharmacokinetics
Format: in vivo, human (Japanese patients)
CONDITION CONTEXT: human, plasma, po, 1 mg, plasma, multiple dose 1 mg QD oral, N = 6; median (range); read-out: Tmax
READOUT LABEL: Tmax

> print(dat)
                                   molecule  test.value
1  Cn1ncnc1[C@H]1c2n[nH]c(=O)c3cc(F)cc(c23)N[C@@H]1c1ccc(F)cc1 [Talazoparib, talazoparib]      1.03 h

These entries and their values trace back to paper PMC8541992.
